Biological target: 72 kDa type IV collagenase (Homo sapiens, UniProt P08253)
Sequence (P08253 whole entry): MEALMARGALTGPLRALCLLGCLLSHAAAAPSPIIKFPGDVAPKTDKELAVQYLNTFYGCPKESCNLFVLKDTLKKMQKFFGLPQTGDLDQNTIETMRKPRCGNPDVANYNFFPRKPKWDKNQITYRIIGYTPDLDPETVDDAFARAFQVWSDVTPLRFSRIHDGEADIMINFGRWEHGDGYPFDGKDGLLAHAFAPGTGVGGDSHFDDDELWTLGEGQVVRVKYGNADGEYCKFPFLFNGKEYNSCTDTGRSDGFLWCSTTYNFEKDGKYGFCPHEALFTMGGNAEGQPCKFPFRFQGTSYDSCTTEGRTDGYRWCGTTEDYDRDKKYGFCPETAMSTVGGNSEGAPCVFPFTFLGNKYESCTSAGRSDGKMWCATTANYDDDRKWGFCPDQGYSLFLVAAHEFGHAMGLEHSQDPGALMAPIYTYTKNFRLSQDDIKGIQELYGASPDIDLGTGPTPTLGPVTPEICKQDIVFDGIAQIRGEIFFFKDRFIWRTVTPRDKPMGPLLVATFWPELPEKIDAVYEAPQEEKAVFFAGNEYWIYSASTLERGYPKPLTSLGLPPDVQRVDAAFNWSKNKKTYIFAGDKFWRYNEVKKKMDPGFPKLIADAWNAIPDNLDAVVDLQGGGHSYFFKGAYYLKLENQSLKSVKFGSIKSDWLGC
Assay: Inhibition of recombinant human MMP2 preincubated for 30 mins followed by McaPro-Leu-Gly-Leu-Dpa-Ala-Arg-NH2 substrate addition measured by fluorescence assay
pIC50: −log10 of the molar value.
This listing pairs molecules with measured pIC50.

MOLECULE	VALUE_COMPARATOR	pIC50
COc1ccc(-c2cc(=O)c3c(O)cc(O)cc3o2)cc1-c1c(O)cc2oc(-c3ccc(O)cc3)cc(=O)c2c1O	<	4.00
O=C(O)c1c(-c2ccc(O)cc2)ccc(CO)c1C#Cc1ccc(O)cc1	=	4.07
O=c1cc(-c2ccc(O)c(-c3c(O)cc(O)c4c(=O)cc(-c5ccc(O)cc5)oc34)c2)oc2cc(O)cc(O)c12 [AMENTOFLAVONE]	=	4.52
O=C(/C=C(\c1ccccc1)c1c(-c2ccc(O)cc2)cccc1-c1ccc(O)cc1)c1ccc(O)cc1	<	4.00

###

Target: 72 kDa type IV collagenase (Homo sapiens)
Assay: Inhibition of recombinant human MMP2 preincubated for 30 mins followed by McaPro-Leu-Gly-Leu-Dpa-Ala-Arg-NH2 substrate addition measured by fluorescence assay
This listing pairs compounds with measured IC50.
MEASURED_METRIC: IC50 (µM)

COMPOUND	MEASURED_METRIC	VALUE_COMPARATOR	OBSERVED_VALUE
COc1ccc(-c2cc(=O)c3c(O)cc(O)cc3o2)cc1-c1c(O)cc2c(c1O)C(=O)CC(c1ccc(O)cc1)O2 (stereo not drawn)	IC50	>	100
O=C1OCc2ccc(-c3ccc(O)cc3)c(C(=O)c3ccc(O)cc3)c21	IC50	=	81.2
COc1ccc(C2CC(=O)c3c(O)cc(O)cc3O2)cc1-c1c(O)cc2c(c1O)C(=O)CC(c1ccc(O)cc1)O2 (stereo not drawn)	IC50	=	35.7
COc1ccc(-c2cc(=O)c3c(O)cc(O)cc3o2)cc1-c1c(O)cc(O)c2c(=O)cc(-c3ccc(O)cc3)oc12	IC50	>	100
O=C1OC(c2ccc(O)cc2)(c2ccc(O)cc2)c2c(-c3ccc(O)cc3)ccc(CO)c21	IC50	=	53.7
O=c1cc(-c2ccc(O)c(-c3c(O)cc4oc(-c5ccc(O)cc5)cc(=O)c4c3O)c2)oc2cc(O)cc(O)c12	IC50	=	10.2
COc1ccc(C2CC(=O)c3c(O)cc(O)cc3O2)cc1-c1c(O)cc(O)c2c(=O)cc(-c3ccc(O)cc3)oc12 (stereo not drawn)	IC50	=	45.8
O=C(c1ccc(O)cc1)c1cc(-c2ccc(O)cc2)c(-c2ccc(O)cc2)c(-c2ccc(O)cc2)c1	IC50	=	54.2

###

Biological target: Matrix metalloproteinase-9 (Homo sapiens, UniProt P14780)
Sequence (P14780 whole entry): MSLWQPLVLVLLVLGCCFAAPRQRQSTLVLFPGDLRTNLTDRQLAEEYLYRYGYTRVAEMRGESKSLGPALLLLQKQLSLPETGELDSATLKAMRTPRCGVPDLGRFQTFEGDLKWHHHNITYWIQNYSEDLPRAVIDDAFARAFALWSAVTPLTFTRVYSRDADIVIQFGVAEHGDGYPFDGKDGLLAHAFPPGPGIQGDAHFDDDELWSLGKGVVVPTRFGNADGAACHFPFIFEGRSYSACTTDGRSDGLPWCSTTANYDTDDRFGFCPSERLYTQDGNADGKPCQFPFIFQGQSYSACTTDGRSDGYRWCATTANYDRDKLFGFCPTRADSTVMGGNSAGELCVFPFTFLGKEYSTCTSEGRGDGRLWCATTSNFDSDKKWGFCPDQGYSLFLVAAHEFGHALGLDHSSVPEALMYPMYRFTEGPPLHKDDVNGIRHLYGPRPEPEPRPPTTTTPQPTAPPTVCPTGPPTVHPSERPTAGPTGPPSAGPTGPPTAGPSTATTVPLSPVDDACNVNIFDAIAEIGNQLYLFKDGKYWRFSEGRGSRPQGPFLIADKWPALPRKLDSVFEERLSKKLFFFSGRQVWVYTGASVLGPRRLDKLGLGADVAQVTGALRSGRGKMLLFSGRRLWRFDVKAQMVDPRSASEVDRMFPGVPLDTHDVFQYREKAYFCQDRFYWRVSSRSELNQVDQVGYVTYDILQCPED
Test: Inhibition of recombinant human MMP9 preincubated for 30 mins followed by McaPro-Leu-Gly-Leu-Dpa-Ala-Arg-NH2 substrate addition measured by fluorescence assay
pIC50: −log10 of the molar value.
This listing pairs compounds with measured pIC50.

TEST_SMILES	pIC50
COc1ccc(-c2cc(=O)c3c(O)cc(O)cc3o2)cc1-c1c(O)cc(O)c2c(=O)cc(-c3ccc(O)cc3)oc12	4.99
O=C(/C=C(\c1ccccc1)c1c(-c2ccc(O)cc2)cccc1-c1ccc(O)cc1)c1ccc(O)cc1	4.61
O=c1cc(-c2ccc(O)c(-c3c(O)cc(O)c4c(=O)cc(-c5ccc(O)cc5)oc34)c2)oc2cc(O)cc(O)c12	5.59
O=C(O)c1c(-c2ccc(O)cc2)ccc(CO)c1C#Cc1ccc(O)cc1	4.39

###

System: A549
Assay: Cytotoxicity against human A549 cells assessed as reduction in cell viability after 48 hrs by MTT assay
Type: functional, cell-based
Conditions: A549, 48 h
pIC50: −log10 of the molar value.
MEASURED_METRIC: pIC50

MOLECULE	VALUE_COMPARATOR	OBSERVED_VALUE
COc1ccc(-c2cc(=O)c3c(O)cc(O)cc3o2)cc1-c1c(O)cc(O)c2c(=O)cc(-c3ccc(O)cc3)oc12	<	4.30
COc1ccc(-c2cc(=O)c3c(O)cc(O)cc3o2)cc1-c1c(O)cc2c(c1O)C(=O)CC(c1ccc(O)cc1)O2 (stereo not drawn)	<	4.30
O=c1cc(-c2ccc(O)c(-c3c(O)cc4oc(-c5ccc(O)cc5)cc(=O)c4c3O)c2)oc2cc(O)cc(O)c12	=	4.67
COc1ccc(C2CC(=O)c3c(O)cc(O)cc3O2)cc1-c1c(O)cc(O)c2c(=O)cc(-c3ccc(O)cc3)oc12 (stereo not drawn)	=	4.51
O=C(O)c1c(-c2ccc(O)cc2)ccc(CO)c1C#Cc1ccc(O)cc1	=	4.47
O=C(c1ccc(O)cc1)c1cc(-c2ccc(O)cc2)c(-c2ccc(O)cc2)c(-c2ccc(O)cc2)c1	<	4.30
CC[C@@]1(O)C(=O)OCc2c1cc1n(c2=O)Cc2cc3cc(O)ccc3nc2-1 [HYDROXYCAMPTOTHECIN]	=	5.76
COc1ccc(-c2cc(=O)c3c(O)cc(O)cc3o2)cc1-c1c(O)cc2oc(-c3ccc(O)cc3)cc(=O)c2c1O	=	4.59

###

This listing pairs molecules with measured IC50.
Tested on: A549
Assay: Cytotoxicity against human A549 cells assessed as reduction in cell viability after 48 hrs by MTT assay
Assay type: functional, cell-based
Settings: A549, 48 h
MEASURED_METRIC: IC50 (µM)

MOLECULE	MEASURED_METRIC	VALUE_UNIT	VALUE_COMPARATOR	OBSERVED_VALUE
O=C(/C=C(\c1ccccc1)c1c(-c2ccc(O)cc2)cccc1-c1ccc(O)cc1)c1ccc(O)cc1	IC50	µM	>	50
COc1ccc(C2CC(=O)c3c(O)cc(O)cc3O2)cc1-c1c(O)cc2c(c1O)C(=O)CC(c1ccc(O)cc1)O2 (stereo not given)	IC50	µM	=	27.7
O=C1OCc2ccc(-c3ccc(O)cc3)c(C(=O)c3ccc(O)cc3)c21	IC50	µM	=	21.9
O=C1OC(c2ccc(O)cc2)(c2ccc(O)cc2)c2c(-c3ccc(O)cc3)ccc(CO)c21	IC50	µM	=	11
O=c1cc(-c2ccc(O)c(-c3c(O)cc(O)c4c(=O)cc(-c5ccc(O)cc5)oc34)c2)oc2cc(O)cc(O)c12	IC50	µM	=	8.36

###

This listing pairs compounds with measured IC50.
Tested on: MGC-803
Experiment: Cytotoxicity against human MGC803 cells assessed as reduction in cell viability after 48 hrs by MTT assay
Assay type: functional, cell-based
Conditions: MGC-803, 48 h

COMPOUND	IC50
O=C1OC(c2ccc(O)cc2)(c2ccc(O)cc2)c2c(-c3ccc(O)cc3)ccc(CO)c21	13.8 µM
O=C(O)c1c(-c2ccc(O)cc2)ccc(CO)c1C#Cc1ccc(O)cc1	32.6 µM
O=C(/C=C(\c1ccccc1)c1c(-c2ccc(O)cc2)cccc1-c1ccc(O)cc1)c1ccc(O)cc1	> 50 µM
COc1ccc(C2CC(=O)c3c(O)cc(O)cc3O2)cc1-c1c(O)cc(O)c2c(=O)cc(-c3ccc(O)cc3)oc12 (stereo not drawn)	36.5 µM
O=c1cc(-c2ccc(O)c(-c3c(O)cc(O)c4c(=O)cc(-c5ccc(O)cc5)oc34)c2)oc2cc(O)cc(O)c12	9.86 µM
O=c1cc(-c2ccc(O)c(-c3c(O)cc4oc(-c5ccc(O)cc5)cc(=O)c4c3O)c2)oc2cc(O)cc(O)c12	15.6 µM
CC[C@@]1(O)C(=O)OCc2c1cc1n(c2=O)Cc2cc3cc(O)ccc3nc2-1 [HYDROXYCAMPTOTHECIN]	6.55 µM
O=C(c1ccc(O)cc1)c1cc(-c2ccc(O)cc2)c(-c2ccc(O)cc2)c(-c2ccc(O)cc2)c1	> 50 µM

###

Biological target: Matrix metalloproteinase-9 (Homo sapiens, UniProt P14780)
Assay: Inhibition of recombinant human MMP9 preincubated for 30 mins followed by McaPro-Leu-Gly-Leu-Dpa-Ala-Arg-NH2 substrate addition measured by fluorescence assay
pIC50: −log10 of the molar value.
This listing pairs compounds with measured pIC50.

COMPOUND	ASSAYED_TARGET	VALUE_COMPARATOR	pIC50
COc1ccc(-c2cc(=O)c3c(O)cc(O)cc3o2)cc1-c1c(O)cc2oc(-c3ccc(O)cc3)cc(=O)c2c1O	Matrix metalloproteinase-9 (Homo sapiens, UniProt P14780)	=	4.58
COc1ccc(C2CC(=O)c3c(O)cc(O)cc3O2)cc1-c1c(O)cc(O)c2c(=O)cc(-c3ccc(O)cc3)oc12 (stereo not drawn)	Matrix metalloproteinase-9 (Homo sapiens, UniProt P14780)	=	4.53
COc1ccc(-c2cc(=O)c3c(O)cc(O)cc3o2)cc1-c1c(O)cc2c(c1O)C(=O)CC(c1ccc(O)cc1)O2 (stereo not drawn)	Matrix metalloproteinase-9 (Homo sapiens, UniProt P14780)	=	4.43
O=C1OCc2ccc(-c3ccc(O)cc3)c(C(=O)c3ccc(O)cc3)c21	Matrix metalloproteinase-9 (Homo sapiens, UniProt P14780)	=	4.44
O=C(c1ccc(O)cc1)c1cc(-c2ccc(O)cc2)c(-c2ccc(O)cc2)c(-c2ccc(O)cc2)c1	Matrix metalloproteinase-9 (Homo sapiens, UniProt P14780)	<	4.00
O=c1cc(-c2ccc(O)c(-c3c(O)cc4oc(-c5ccc(O)cc5)cc(=O)c4c3O)c2)oc2cc(O)cc(O)c12	Matrix metalloproteinase-9 (Homo sapiens, UniProt P14780)	=	4.93
O=C1OC(c2ccc(O)cc2)(c2ccc(O)cc2)c2c(-c3ccc(O)cc3)ccc(CO)c21	Matrix metalloproteinase-9 (Homo sapiens, UniProt P14780)	=	4.74
COc1ccc(C2CC(=O)c3c(O)cc(O)cc3O2)cc1-c1c(O)cc2c(c1O)C(=O)CC(c1ccc(O)cc1)O2 (stereo not drawn)	Matrix metalloproteinase-9 (Homo sapiens, UniProt P14780)	=	4.59
